Source listed as patent US8119681B2.

MEASURED TARGET: human GR (Homo sapiens)
Sequence (P04150 whole entry): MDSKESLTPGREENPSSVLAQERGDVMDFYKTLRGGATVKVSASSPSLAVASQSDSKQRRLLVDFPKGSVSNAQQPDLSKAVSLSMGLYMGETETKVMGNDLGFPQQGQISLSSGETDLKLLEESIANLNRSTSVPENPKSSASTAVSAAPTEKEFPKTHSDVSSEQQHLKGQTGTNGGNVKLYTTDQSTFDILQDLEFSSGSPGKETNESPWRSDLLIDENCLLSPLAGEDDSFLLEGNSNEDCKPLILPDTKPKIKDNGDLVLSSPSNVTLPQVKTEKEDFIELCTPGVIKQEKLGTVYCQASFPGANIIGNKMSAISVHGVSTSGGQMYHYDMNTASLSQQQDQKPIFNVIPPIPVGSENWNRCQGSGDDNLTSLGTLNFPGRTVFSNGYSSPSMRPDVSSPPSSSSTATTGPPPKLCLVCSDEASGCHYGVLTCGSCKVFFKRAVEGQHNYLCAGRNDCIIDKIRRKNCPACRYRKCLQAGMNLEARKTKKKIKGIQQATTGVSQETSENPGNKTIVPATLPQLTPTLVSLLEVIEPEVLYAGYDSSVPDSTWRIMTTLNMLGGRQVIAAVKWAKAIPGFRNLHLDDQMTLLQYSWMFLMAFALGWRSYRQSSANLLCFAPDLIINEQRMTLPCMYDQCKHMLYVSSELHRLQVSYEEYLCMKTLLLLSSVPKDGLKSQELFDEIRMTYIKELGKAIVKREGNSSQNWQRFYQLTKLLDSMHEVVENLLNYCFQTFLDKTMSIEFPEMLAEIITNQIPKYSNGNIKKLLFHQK
PROCEDURE SUMMARY: Trans-Activation Modulation of Glucocorticoid Receptor (GRAMMER), MMTV-LUC reporter gene
Assay type: cell-based
Parameters: endogenous in cells
PARTICULARS: A549; read-out: Transactivation A549 Cells GRAMMER Emax (%)
MEASUREMENT LABEL: Emax (%)
Hi! Could you send only the number? It should be in %, unit omitted.

• CCS(=O)(=O)Nc1ccccc1CC[C@]1(O)CCC2=Cc3c(cnn3-c3ccc(F)cc3)C[C@@]21C = 43
• CC(C)(C)CNC(=O)c1c(F)cccc1CC[C@]1(O)CCC2=Cc3c(cnn3-c3ccc(F)cc3)C[C@@]21C = 23
• CCNC(=O)c1ccccc1CC[C@]1(O)CCC2=Cc3c(cnn3-c3ccc(F)cc3)C[C@@]21C = 51
• CN(C)S(=O)(=O)c1ccccc1CC[C@]1(O)CCC2=Cc3c(cnn3-c3ccc(F)cc3)C[C@@]21C = 55
• C=CCNC(=O)c1c(F)cccc1CC[C@]1(O)CCC2=Cc3c(cnn3-c3ccc(F)cc3)C[C@@]21C = 37
• C=C(C)CNC(=O)c1ccccc1CC[C@]1(O)CCC2=Cc3c(cnn3-c3ccc(F)cc3)C[C@@]21C = 13
• C[C@]12Cc3cnn(-c4ccccc4)c3C=C1CC[C@@]2(O)CCc1ccccc1C(N)=O = 59

Now examine the next entry.
Reported Emax of `CN(C)S(=O)(=O)NCc1c(F)cccc1CC[C@]1(O)CCC2=Cc3c(cnn3-c3ccc(F)cc3)C[C@@]21C` : 20
